- measuredOn: Nuclear factor erythroid 2-related factor 2 (Homo sapiens)
- measurementNotes: Activation of Nrf2 in human HepG2-ARE-C8 cells assessed as upregulation of ARE level at 80 uM after 12 hrs by luciferase reporter gene assay relative to control
- Type: cell-based
attributeMeasured: fold change (FC)

# example entries with known answers
| compoundStructureString | attributeMeasured | value |
| --- | --- | --- |
| N#Cc1ccccc1-c1nc(-c2ccc3nc[nH]c3c2)no1 | fold change (FC) | 1.39 |
| c1ccc(-c2nc(-c3ccc4nc[nH]c4c3)no2)cc1 | fold change (FC) | 3.19 |
| COc1ccc(OC)c(-c2nc(-c3ccc4nc[nH]c4c3)no2)c1 | fold change (FC) | 3.7 |
| Cc1ccccc1-c1nc(-c2ccc3nc[nH]c3c2)no1 | fold change (FC) | 18.5 |
| FC(F)(F)c1ccccc1-c1nc(-c2ccc3nc[nH]c3c2)no1 | fold change (FC) | 17.9 |

I = Cc1nc2cc(-c3noc(-c4ccccc4Br)n3)ccc2o1
II = c1ccc(-c2ccc(-c3nc(-c4ccc5nc[nH]c5c4)no3)cc2)cc1
Between I and II , whose recorded fold change (FC) is greater? When you have decided, please share the label of that item.
II
